Provide the recorded binding normalized to PSGL-1 for the entries that follow.
system: T1, Sulfotyr fibrinogen γ peptide (not fully specified; Y8 and Y12 sulfated (SO3); C-terminal biotin)
T1 construct: also called Fibrinogen gamma peptide; human sulfotyrosinylated fibrinogen peptide
T1 peptide: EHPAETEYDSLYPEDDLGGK
assay: ELISA, 50 nM mAb
Numbers only.

binder	binding normalized to PSGL-1
01A11 (antibody, IgG4, V domains shown) VH: EVKLLESGGGLVQPGGSLRLSCATSGFSFSDYWMSWVRQAPGKGLEWVASIKKDGSEKYYVDSVKGRFTISRDNAKNSLYVQMNSLRAEDTAIYYCVVFGAWGPGTLVTVSS VL: DIVMTQTPLSLPVTLGQPASISCRSGRSLVYSDGNTYLNWFQQRPGQSPRRLIYKVSNRDSGVPDRFSGGGSGTDFTLKISRVEAEDVAIYYCMQGTHWPPTFGQGTKLEIK	0.09
05A07 (antibody, IgG4, V domains shown) VH: QVQLVQSGSEVKRPGASVKVSCKTSGYTFSNYGIAWVRQAPGQGLEWVGWVSAYNGKTGASQKLQGRVTMTTDRSTTTAYLELRSLQSDDTAVYYCARGVKGGLTGYARDYWGQGTLVIVSS VL: DIVLTQSPRSLPVTLGQPASISCRSSQSLVNRAGDTYLNWFQQRPGQSPRRLIYKVSNRDSGVPDRFSGSGSGTDFTLKISRVEAEDVGVYYCMQGTQWPYTFGQGTKLEIK	1.22

binding normalized to PSGL-1 lookup needed for 09D11 (antibody, IgG4, V domains shown) VH: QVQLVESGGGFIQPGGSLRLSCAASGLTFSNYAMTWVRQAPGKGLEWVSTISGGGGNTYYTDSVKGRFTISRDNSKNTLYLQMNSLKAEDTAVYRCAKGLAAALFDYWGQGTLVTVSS VL: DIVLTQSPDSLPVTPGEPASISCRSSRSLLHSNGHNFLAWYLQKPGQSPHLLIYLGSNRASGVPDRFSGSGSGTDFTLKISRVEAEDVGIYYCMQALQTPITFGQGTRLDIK , thanks.
0.09

# credit: patent US20220396632A1
